src = BindingDB's records for doi:10.1016/j.bmcl.2010.08.063

Measured log10 of EC50, listed per entry for reference.
assay: Positive modulation of GluR1
Give log10 of EC50, with EC50 taken in µM.

Previously resolved entries follow.
CN(C)Cc1cn(CC(=O)Nc2sc3c(c2C(N)=O)CCCC3)nc1C(C)(C)C ... -0.50
CCN(CC)Cc1cn(CC(=O)Nc2sc3c(c2C(N)=O)CCCC3)nc1C(F)(F)F ... -0.20
CNCc1cn(CC(=O)Nc2sc3c(c2C(N)=O)CCCC3)nc1C(C)(C)C ... -0.50
CNCc1cn(CC(=O)Nc2sc3c(c2C(=O)NC)CCCC3)nc1C(F)(F)F ... 0.20
CNCc1cn(CC(=O)Nc2sc3c(c2C(N)=O)CCCC3)nc1C(F)(F)F ... -0.90
CNCc1cn(CCC(=O)Nc2sc3c(c2C(N)=O)CCCC3)nc1C(F)(F)F ... 0.20
CC(C)NCc1cn(CC(=O)Nc2sc3c(c2C(N)=O)CCCC3)nc1C(C)(C)C ... 0.20
CC(C)(C)c1nn(CC(=O)Nc2sc3c(c2C(N)=O)CCCC3)cc1CNC1CC1 ... 0.20

Reported log10 of EC50 of `NC(=O)c1c(NC(=O)Cn2cc(CNC3CC3)c(C(F)(F)F)n2)sc2c1CCCC2` : -0.20

Briefly, log10 of EC50 measured for `O=C(Cn1nc(C(F)(F)F)c2c1CCCC2)Nc1sc2c(c1CO)CCCC2` : -0.60

Value of measured log10 of EC50 for the entry `CCNCc1cn(CC(=O)Nc2sc3c(c2C(N)=O)CCCC3)nc1C(C)(C)C` : -0.10

Kindly note the recorded log10 of EC50 for `NCc1cn(CC(=O)Nc2sc3c(c2C(N)=O)CCCC3)nc1C(F)(F)F` , which is -0.10

So, `NC(=O)c1c(NC(=O)Cn2nc(C(F)(F)F)c3c2CCNC3)sc2c1CCCC2` ? Its log10 of EC50 was 0.00
